Just for reference, ChEMBL document CHEMBL4118097 is where these values come from.

# measurementTarget: Tyrosine-protein kinase receptor UFO (Homo sapiens, UniProt P30530)
# Sequence (P30530 whole entry): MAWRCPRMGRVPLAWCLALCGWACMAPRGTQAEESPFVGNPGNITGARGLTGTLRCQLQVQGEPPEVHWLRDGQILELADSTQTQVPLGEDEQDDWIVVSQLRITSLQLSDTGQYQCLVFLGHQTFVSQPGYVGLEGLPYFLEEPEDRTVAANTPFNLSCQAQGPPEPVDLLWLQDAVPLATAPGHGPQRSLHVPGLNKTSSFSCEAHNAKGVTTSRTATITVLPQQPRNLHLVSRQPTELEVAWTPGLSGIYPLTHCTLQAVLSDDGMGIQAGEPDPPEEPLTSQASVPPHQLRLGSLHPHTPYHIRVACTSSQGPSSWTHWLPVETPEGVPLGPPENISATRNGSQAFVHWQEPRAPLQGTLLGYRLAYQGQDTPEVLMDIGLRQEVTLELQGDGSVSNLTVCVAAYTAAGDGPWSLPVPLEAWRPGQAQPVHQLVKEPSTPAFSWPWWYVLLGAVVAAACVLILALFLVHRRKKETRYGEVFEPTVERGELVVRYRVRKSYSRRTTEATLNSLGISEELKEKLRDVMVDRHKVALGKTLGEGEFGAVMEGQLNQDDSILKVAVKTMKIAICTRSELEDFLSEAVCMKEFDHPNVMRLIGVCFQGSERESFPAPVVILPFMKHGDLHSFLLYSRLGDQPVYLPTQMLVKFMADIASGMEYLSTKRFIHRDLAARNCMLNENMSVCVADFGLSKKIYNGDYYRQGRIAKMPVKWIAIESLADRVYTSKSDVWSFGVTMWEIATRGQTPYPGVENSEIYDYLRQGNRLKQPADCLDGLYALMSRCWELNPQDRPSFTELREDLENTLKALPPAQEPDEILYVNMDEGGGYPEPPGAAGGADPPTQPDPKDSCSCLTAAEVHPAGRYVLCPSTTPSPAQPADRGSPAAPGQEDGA
# measurementDescription: Inhibition of recombinant His-tagged human AXL (473 to end residues) cytoplasmic domain expressed in insect cells by FRET assay
assayEndpoint: pIC50
Remember, pIC50 is on a log scale: it is -log10 of the molar concentration.

Query: Item under review: Nc1ncc(-c2cc([C@H]3[C@@H]4CN(C5COC5)C[C@@H]43)n(CC3CC3)n2)cc1C(F)(F)F . Reported pIC50?
Result: 6.35
